Target: Bst TRAP12 ∆71 (Geobacillus stearothermophilus, UniProt Q9X6J6)
Sequence (Q9X6J6 1-69 limits assumed): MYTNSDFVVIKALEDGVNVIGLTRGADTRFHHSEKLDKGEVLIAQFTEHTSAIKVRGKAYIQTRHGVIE
Assay type: binding, B. stearothermophilus
Conditions: 1/K 0, NN model, dissociation constant for isolated sites, ~25°C
property label: Kd

compound_structure_string=N[C@@H](Cc1c[nH]c2ccccc12)C(=O)O property_label=Kd value_reported="217 µM"

###

Target: Bha TRAP12 (Halalkalibacterium halodurans, UniProt Q9KCC6)
Sequence (Q9KCC6 whole entry): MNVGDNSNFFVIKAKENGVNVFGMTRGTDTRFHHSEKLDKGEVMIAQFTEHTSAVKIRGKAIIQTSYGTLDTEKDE
Assay: Isothermal titration calorimetry, Trp into TRAP
Assay type: binding, B. halodurans
Details: Kd,1 (Site 1), ITC 25°C, two-sites model, first Trp
pKd: −log10 of the molar value.
property label: pKd

compound_structure_string=N[C@@H](Cc1c[nH]c2ccccc12)C(=O)O value_reported=5.74
